- target: androgen receptor of rat ventral prostate (Rattus norvegicus)
- Construct: androgen receptors isolated, as described in Chang, C., et al., J. Steroid Biochem., 27:123 (1987), from rat ventral prostate; from tissue; host or cells: rat ventral prostate
- Sequence (P15207 1-902): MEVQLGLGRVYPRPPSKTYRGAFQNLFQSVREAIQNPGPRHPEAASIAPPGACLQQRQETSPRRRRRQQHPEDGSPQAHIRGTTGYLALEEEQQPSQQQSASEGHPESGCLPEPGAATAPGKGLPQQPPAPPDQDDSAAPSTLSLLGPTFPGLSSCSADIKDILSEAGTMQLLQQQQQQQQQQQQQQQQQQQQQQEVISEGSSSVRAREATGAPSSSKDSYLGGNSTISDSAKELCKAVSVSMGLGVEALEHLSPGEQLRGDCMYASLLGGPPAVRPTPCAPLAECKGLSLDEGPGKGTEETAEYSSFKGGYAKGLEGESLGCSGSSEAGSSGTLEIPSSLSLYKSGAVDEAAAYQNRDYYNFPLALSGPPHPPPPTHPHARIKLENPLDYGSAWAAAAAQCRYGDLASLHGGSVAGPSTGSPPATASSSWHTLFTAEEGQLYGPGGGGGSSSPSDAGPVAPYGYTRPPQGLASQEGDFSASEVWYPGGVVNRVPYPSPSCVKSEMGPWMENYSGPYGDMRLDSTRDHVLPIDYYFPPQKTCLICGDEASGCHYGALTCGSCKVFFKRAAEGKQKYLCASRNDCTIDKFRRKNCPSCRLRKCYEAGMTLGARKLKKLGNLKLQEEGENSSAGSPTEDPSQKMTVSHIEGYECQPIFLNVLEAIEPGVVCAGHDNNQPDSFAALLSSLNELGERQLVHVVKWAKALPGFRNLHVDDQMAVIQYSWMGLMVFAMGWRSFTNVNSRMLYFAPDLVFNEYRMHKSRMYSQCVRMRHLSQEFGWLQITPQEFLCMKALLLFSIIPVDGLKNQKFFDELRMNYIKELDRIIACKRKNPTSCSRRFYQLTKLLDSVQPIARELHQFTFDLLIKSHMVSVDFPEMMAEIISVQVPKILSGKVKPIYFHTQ
- assay_protocol: Competition with [3H]R1881 for androgen receptor binding, cell-free assay (Table 1)
observed_property: IC50 (µM)
Give just the number in µM; leave the unit off.

What the record says about c1cc2c(c3c1CCCC3)CCCC2 [1,2,3,4,5,6,7,8-octahydro-phenanthrene, reference compound] : IC50 is 200

response.value for c1ccc2c(c1)CCc1ccccc1C2 [reference compound] (field: IC50) = 60

Form: compound = O=C1CCc2c(ccc3c2CCc2c(O)cccc2-3)C1 [Compound 22] ; IC50 = 1.3
